The reported measurements were obtained from the supplement of paper PMC7840683.

# Tested on: HepaRG
# TEST_METHOD_NOTES: LDH release cytotoxicity, % of total lysis control; higher = more cytotoxic
# MEASUREMENT_CONTEXT: 100 µM; 48 h
PROPERTY_LABEL: LDH release cytotoxicity (%)
Give the value in % but do not write % after it.

Form: molecule = NC(=O)Cn1c(=O)cc(CCN2CCN(c3nccc4sccc34)CC2)c2ccc(F)cc21 ; LDH release cytotoxicity = 4.59

Form: molecule = CSC1=NC(C)(c2ccccc2)C(=O)N1Nc1ccccc1 (centres undefined) ; LDH release cytotoxicity = 15.2

Form: molecule = CC(c1ccc(O)cc1)(c1ccc(O)cc1)c1ccc(O)cc1 ; LDH release cytotoxicity = -0.486

Form: molecule = N=C(Nc1ccccc1)Nc1ccccc1 ; LDH release cytotoxicity = 0.505

----------
# Test system: HepaRG
# TEST_METHOD_NOTES: LDH release cytotoxicity, % of total lysis control; higher = more cytotoxic
# MEASUREMENT_CONTEXT: 3.16228 µM; 48 h
Counter-ions that a name gives are not always drawn.
PROPERTY_LABEL: LDH release cytotoxicity (%)
Give the value in % but do not write % after it.

Form: compound = COC(=O)Nc1nc2ccccc2[nH]1 [Carbendazim] ; LDH release cytotoxicity = -1.63

Form: compound = CC(C)c1cccc(C(C)C)c1NC(=O)NS(=O)(=O)c1cc(C(C)(C)O)co1 ; LDH release cytotoxicity = -1.32

Form: compound = Nc1nc(Cl)nc2c1ncn2C1CC(O)C(CO)O1 (centres undefined) [Cladribine] ; LDH release cytotoxicity = 3.14

Form: compound = O=C(O)C(F)(F)C(F)(F)C(F)(F)C(F)(F)C(F)(F)C(F)(F)C(F)(F)C(F)(F)F [Perfluorononanoic acid] ; LDH release cytotoxicity = -1.4

Form: compound = CC(C)(O)c1cnn2c(-c3ccc(F)c(-c4c(F)cccc4C#N)c3)cnc2n1 ; LDH release cytotoxicity = -1.51

Form: compound = O=c1ccc2ccccc2o1 [Coumarin] ; LDH release cytotoxicity = -1.12

Form: compound = CC(C)(C)c1cc(C=C2SC(=N)NC2=O)cc(C(C)(C)C)c1O [Darbufelone mesylate] ; LDH release cytotoxicity = -3.23

Form: compound = CCCN(CCC)c1c([N+](=O)[O-])cc(C(F)(F)F)cc1[N+](=O)[O-] [Trifluralin] ; LDH release cytotoxicity = -5.85

Form: compound = CCc1nn(C)c(C(=O)NCc2ccc(C(C)(C)C)cc2)c1Cl [Tebufenpyrad] ; LDH release cytotoxicity = 10.5

----------
# System: HepaRG
# TEST_METHOD_NOTES: LDH release cytotoxicity, % of total lysis control; higher = more cytotoxic
# MEASUREMENT_CONTEXT: 3.16228 µM; 48 h
PROPERTY_LABEL: LDH release cytotoxicity (%)
Give the value in % but do not write % after it.

Field LDH release cytotoxicity (HepaRG), entry CSC1=NC(C)(c2ccccc2)C(=O)N1Nc1ccccc1 (stereo not given) : -1.63

Field LDH release cytotoxicity (HepaRG), entry CCOC(=O)c1ccc(O)cc1 : -0.851

Field LDH release cytotoxicity (HepaRG), entry CN(C)C(=S)S [Sodium dimethyldithiocarbamate] : -0.138

Field LDH release cytotoxicity (HepaRG), entry CC(C)(C)c1ccccc1O : -0.599

Field LDH release cytotoxicity (HepaRG), entry C=CC(=C)CCC=C(C)C : -1.74

Field LDH release cytotoxicity (HepaRG), entry N#CSCSc1nc2ccccc2s1 : 0.021

Field LDH release cytotoxicity (HepaRG), entry Oc1ccc2ccccc2c1N=Nc1ccccc1 : -0.781

Field LDH release cytotoxicity (HepaRG), entry N#CN [Cyanamide] : -2.07

Field LDH release cytotoxicity (HepaRG), entry Nc1nc(N)c2nc(CNc3ccc(C(=O)NC(CCC(=O)O)C(=O)O)cc3)cnc2n1 (stereo not given) : -7.31

Field LDH release cytotoxicity (HepaRG), entry CCCC1=NC(=S)NC(=O)C1 : -2.28
